- assay: Miglustat toxicokinetics
- Assay type: in vivo, cynomolgus monkey
- experimental-parameters: cynomolgus monkey, plasma, po, 175 mg/kg, Day 1; 100 mg/kg ATB200 + 175 mg/kg miglustat
property: Cmax (ng/mL)
Answers are plain numbers, in ng/mL.

For the compound shown here, CCCCN1C[C@H](O)[C@@H](O)[C@H](O)[C@H]1CO [miglustat] , give the reported Cmax.
20400

---

- assay: Miglustat toxicokinetics
- Assay type: in vivo, cynomolgus monkey
- experimental-parameters: both sexes, cynomolgus monkey, plasma, oral, males and females combined; Days 1 and 85; across groups; read-out: mean t1/2
property: half-life

For the compound shown here, CCCCN1C[C@H](O)[C@@H](O)[C@H](O)[C@H]1CO [miglustat] , give the reported half-life.
6.66 to 8.23 h
